From: patent US20200392198A1

# subject.of.test: T1, human GIP receptor (human, UniProt P48546 22-466)
# T1 sequence (looked up): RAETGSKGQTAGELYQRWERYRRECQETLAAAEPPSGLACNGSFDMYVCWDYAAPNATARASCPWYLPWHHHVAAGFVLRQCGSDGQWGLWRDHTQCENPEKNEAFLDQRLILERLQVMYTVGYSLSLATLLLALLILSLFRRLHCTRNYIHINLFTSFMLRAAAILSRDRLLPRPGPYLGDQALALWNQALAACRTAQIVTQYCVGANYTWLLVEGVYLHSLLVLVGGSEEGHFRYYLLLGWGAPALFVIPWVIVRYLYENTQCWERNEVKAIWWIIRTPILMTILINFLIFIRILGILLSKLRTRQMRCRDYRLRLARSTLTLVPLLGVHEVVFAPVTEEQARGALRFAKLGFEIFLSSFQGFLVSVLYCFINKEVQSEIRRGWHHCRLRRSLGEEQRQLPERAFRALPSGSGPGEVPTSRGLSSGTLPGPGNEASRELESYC
# procedure.details: cell-based or functional assay
Ends that are not written are not given here. * marks the point of attachment. Lauroyl = CCCCCCCCCCCC(=O)*
readout.name: EC50 (cAMP) (nM)
Report as a plain number; the unit nM is understood.

{"columns": ["binder", "EC50 (cAMP) / nM"],
 "data": [
  ["HADGTFISDYSTILDNLAARDFINWLIQTKITK (not fully specified (residue 1, N-terminus); also: C16 acyl group on His 1 (attachment site not given here)) [GIP-GLP-2 co-agonist 29]", 1.82],
  ["HADGTFISDYSTILDNLAARDFINWLIQTKGK(Lauroyl)K [GIP-GLP-2 co-agonist 35]", 0.48]
]}

Report EC50 (cAMP), nothing else, for this binder: HADGTFSSDYSTILDNLAAKDFINWLIQTKITD [GIP-GLP-2 co-agonist 20]
0.59
